Tested on: Mycobacterium tuberculosis
Assay: Antimicrobial activity against Mycobacterium tuberculosis H37Rv ATCC 27294 after 7 days by MABA
Format: functional
measured_quantity: inhibition (INH)
# do not omit the unit; it follows the number

See these solved cases before continuing.
{"columns": ["compound", "inhibition (INH)"],
 "data": [
  ["O=[N+]([O-])c1cn2c(n1)OC[C@@H](OCc1ccc(OC(F)(F)F)cc1)C2 [PRETOMANID]", "100%"],
  ["COc1c(N2C[C@@H]3CCCN[C@@H]3C2)c(F)cc2c(=O)c(C(=O)O)cn(C3CC3)c12 [MOXIFLOXACIN]", "100%"],
  ["CN(C)c1ccc(/C=N/c2ccc(/N=C3\\C(=O)N(Cc4ccccc4)c4ccccc43)cc2)cc1", "79%"]
]}

Test system Mycobacterium tuberculosis; read-out inhibition (INH); what value for O=C1/C(=N\c2ccc(/N=C/c3ccc(Cl)cc3)cc2)c2ccccc2N1Cc1ccccc1 ?
90%

And what about the compound O=C1/C(=N\c2ccc(/N=C/c3ccc(Br)cc3)cc2)c2ccccc2N1Cc1ccccc1 ?
96%

Here is the next compound: COc1cc(/C=N/c2ccc(/N=C3\C(=O)N(Cc4ccccc4)c4ccccc43)cc2)ccc1O
80%

Continue with O=C1/C(=N\c2ccc(/N=C/c3ccc([N+](=O)[O-])cc3)cc2)c2ccccc2N1Cc1ccccc1
80%

// next record COc1ccc(/C=N/c2ccc(/N=C3\C(=O)N(Cc4ccccc4)c4ccccc43)cc2)cc1OC
73%
